# Tested on: Escherichia coli TOP10;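 note: peptides expressed intracellularly from a pBAD plasmid library in pooled LB shake-flask culture, induced with 0.3% L-arabinose, DNA abundance read by NGS, three biological replicates, DESeq2 with apeglm shrinkage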
# assayDetails: shrunken log2 fold change of peptide-encoding DNA abundance (4.5 h post-induction vs induction); higher = less antimicrobial activity (less host growth inhibition)
# appliedConditions: time post-induction: 4.5 h; library: site-saturation at positions 5, 18, 19, 20
Outcome: 1.0 for shrunken log2 fold change of at least -0.2; 0.0 for anything lower.

>  <querySequence>
RRIRPRPPRLPRPRPRPNTIPRP

>  <category>
0.0

$$$$
>  <querySequence>
RRIRLRPPRLPRPRPRPMRLPRP

>  <category>
1.0

$$$$
>  <querySequence>
RRIRFRPPRLPRPRPRPVWFPRP

>  <category>
1.0

$$$$
>  <querySequence>
RRIRRRPPRLPRPRPRPQKEPRP

>  <category>
1.0

$$$$
>  <querySequence>
RRIRCRPPRLPRPRPRPNFQPRP

>  <category>
0.0

$$$$
>  <querySequence>
RRIRYRPPRLPRPRPRPPICPRP

>  <category>
0.0

$$$$
>  <querySequence>
RRIRHRPPRLPRPRPRPMDWPRP

>  <category>
1.0

$$$$
>  <querySequence>
RRIRRRPPRLPRPRPRPHESPRP

>  <category>
1.0

$$$$
>  <querySequence>
RRIRVRPPRLPRPRPRPCKDPRP

>  <category>
1.0

$$$$
>  <querySequence>
RRIRSRPPRLPRPRPRPTDHPRP

>  <category>
0.0

$$$$
>  <querySequence>
RRIRGRPPRLPRPRPRPHYKPRP

>  <category>
1.0

$$$$
>  <querySequence>
RRIRIRPPRLPRPRPRPCIEPRP

>  <category>
1.0

$$$$
>  <querySequence>
RRIRTRPPRLPRPRPRPEPEPRP

>  <category>
1.0

$$$$
>  <querySequence>
RRIRARPPRLPRPRPRPFFMPRP

>  <category>
1.0

$$$$
>  <querySequence>
RRIRKRPPRLPRPRPRPAFSPRP

>  <category>
1.0

$$$$
>  <querySequence>
RRIRWRPPRLPRPRPRPFWLPRP

>  <category>
1.0

$$$$
>  <querySequence>
RRIRERPPRLPRPRPRPNAKPRP

>  <category>
1.0

$$$$
>  <querySequence>
RRIRARPPRLPRPRPRPYQVPRP

>  <category>
0.0

$$$$
>  <querySequence>
RRIRGRPPRLPRPRPRPAFYPRP

>  <category>
1.0

$$$$
>  <querySequence>
RRIRPRPPRLPRPRPRPLFLPRP

>  <category>
1.0

$$$$
>  <querySequence>
RRIRLRPPRLPRPRPRPLRLPRP

>  <category>
1.0

$$$$
>  <querySequence>
RRIRTRPPRLPRPRPRPQVCPRP

>  <category>
1.0

$$$$
>  <querySequence>
RRIRARPPRLPRPRPRPEWEPRP

>  <category>
1.0

$$$$
>  <querySequence>
RRIRCRPPRLPRPRPRPEQFPRP

>  <category>
1.0

$$$$
>  <querySequence>
RRIRHRPPRLPRPRPRPFCSPRP

>  <category>
1.0

$$$$
>  <querySequence>
RRIRIRPPRLPRPRPRPCYAPRP

>  <category>
0.0

$$$$
>  <querySequence>
RRIRQRPPRLPRPRPRPDQGPRP

>  <category>
1.0

$$$$
>  <querySequence>
RRIRMRPPRLPRPRPRPIYKPRP

>  <category>
1.0

$$$$
>  <querySequence>
RRIRARPPRLPRPRPRPNYGPRP

>  <category>
0.0

$$$$
>  <querySequence>
RRIRSRPPRLPRPRPRPFHKPRP

>  <category>
1.0

$$$$
>  <querySequence>
RRIRPRPPRLPRPRPRPHHHPRP

>  <category>
0.0

$$$$
>  <querySequence>
RRIRNRPPRLPRPRPRPDHKPRP

>  <category>
0.0

$$$$
>  <querySequence>
RRIRGRPPRLPRPRPRPTHIPRP

>  <category>
1.0

$$$$
>  <querySequence>
RRIRERPPRLPRPRPRPRYIPRP

>  <category>
0.0

$$$$
>  <querySequence>
RRIRFRPPRLPRPRPRPCAFPRP

>  <category>
0.0

$$$$
>  <querySequence>
RRIRVRPPRLPRPRPRPAKTPRP

>  <category>
1.0

$$$$
>  <querySequence>
RRIRFRPPRLPRPRPRPFNKPRP

>  <category>
0.0

$$$$
>  <querySequence>
RRIRCRPPRLPRPRPRPLQQPRP

>  <category>
1.0

$$$$
>  <querySequence>
RRIRQRPPRLPRPRPRPNDNPRP

>  <category>
0.0

$$$$
>  <querySequence>
RRIRERPPRLPRPRPRPVQYPRP

>  <category>
0.0

$$$$
>  <querySequence>
RRIRKRPPRLPRPRPRPEYNPRP

>  <category>
1.0

$$$$
>  <querySequence>
RRIRQRPPRLPRPRPRPIYSPRP

>  <category>
1.0

$$$$
>  <querySequence>
RRIRLRPPRLPRPRPRPLRYPRP

>  <category>
1.0

$$$$
>  <querySequence>
RRIRWRPPRLPRPRPRPCEYPRP

>  <category>
0.0

$$$$
>  <querySequence>
RRIRDRPPRLPRPRPRPMKVPRP

>  <category>
1.0

$$$$
>  <querySequence>
RRIRQRPPRLPRPRPRPHQYPRP

>  <category>
0.0

$$$$
